assay: acute toxicity (LD50), mouse, intraperitoneal; format: in vivo; settings: in vivo, ip, intraperitoneal, acute toxicity
readout name: LD50

Q: Quickly give me recorded LD50 for COC1c2cc(O)cc(c2O)NC(=O)/C(C)=C/C=C\C(C)C(OC(N)=O)/C(C)=C/C(C)C(OC)C(O)CC1C (stereo not shown) [E-5-R]
Ans: 100 to 200 mg/kg

meta.source: patent US4421687A
